Biological target: σ2-receptor (Mus musculus)
Sequence (Q8VD00 whole entry): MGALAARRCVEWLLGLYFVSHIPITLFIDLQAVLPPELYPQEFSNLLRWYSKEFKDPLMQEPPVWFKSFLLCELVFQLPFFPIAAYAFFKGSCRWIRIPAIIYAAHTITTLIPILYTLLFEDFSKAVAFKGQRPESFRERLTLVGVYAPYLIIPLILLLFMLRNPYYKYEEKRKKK
pKi: −log10 of the molar value.
measure: pKi

Could you share what pKi was measured for Cc1cc(OCCN2CCOCC2)nn1-c1ccc(Cl)c(Cl)c1 [Example 1] , tested on σ2-receptor (Mus musculus)?
< 5.00

----------
measure: melting point

Solved cases below.
- molecule: "Cl.Clc1ccc(-n2nc(OCCN3CCc4ccccc4C3)cc2-c2ccccc2)cc1Cl [Example 21]"
  melting point: "185 to 189 °C"
- molecule: "CC(=O)c1c(OCCN2CCOCC2)nn(-c2ccc(Cl)c(Cl)c2)c1C.O=C(O)C(=O)O"
  melting point: "188 to 192 °C"
- molecule: "CC(C)c1cc(OCCN2CCOCC2)nn1-c1ccc(Cl)c(Cl)c1.Cl [Example 31]"
  melting point: "195 to 197 °C"

Given the molecule CC(C)c1cc(OCCN2CCc3ccccc3C2)nn1-c1ccc(Cl)c(Cl)c1.Cl [Example 36] , what is its reported melting point?
186 to 191 °C

Given the molecule Cl.Clc1ccc(-n2nc(OCCN3CCCC3)cc2-c2ccccc2)cc1Cl [Example 17] , what is its reported melting point?
137 to 147 °C

----------
Target: σ1-receptor (Cavia porcellus)
Construct: guinea pig brains were homogenized; from tissue; host or cells: guinea pig brain membranes
Assay: Sigma-1 receptor binding, [3H](+)-pentazocine, brain membranes
Design: species or system guinea pig
Conditions: 10^−7 M
Experimental: Brain membrane preparation and binding assays for the σ1-receptor were performed as described (DeHaven-Hudkins et al., 1992) with some modifications. In brief, guinea pig brains were homogenized in 10 vols. (w/v) of Tris-HCl 50 mM 0.32 M sucrose, pH 7.4, with a Kinematica Polytron PT 3000 at 15000 r.p.m. for 30 s. The homogenate was centrifuged at 1000 g for […] at 4° C. and the supernatants collected and centrifuged again at 48000 g for 15 min at 4° C. […]
measure: inhibition at 0.1 µM (%)
Field format: number, assumed %, no unit text.

Solved cases below.
- molecule: "Cc1cc(OCCN2CCCCC2)nn1-c1ccc2ccccc2c1.Cl [Example 63, hydrochloride]"
  inhibition at 0.1 µM [%]: 105
- molecule: "Cc1cc(OCCCCN2CCCCC2)nn1-c1ccc(Cl)c(Cl)c1.Cl [Example 24, hydrochloride]"
  inhibition at 0.1 µM [%]: 110
- molecule: "Cl.Clc1ccc(-n2nc(OCCN3CCCC3)cc2-c2ccccc2)cc1Cl [Example 17, hydrochloride]"
  inhibition at 0.1 µM [%]: 47.3

Given the molecule CCN(CC)CCOc1cc(C)n(-c2ccc3ccccc3c2)n1 , what is its reported inhibition at 0.1 µM?
69.2

Given the molecule Clc1ccc(-n2nc(OCCN3CCCCC3)cc2-c2ccccc2)cc1Cl , what is its reported inhibition at 0.1 µM?
80.1

Given the molecule CC(C)c1cc(OCCN2CCc3ccccc3C2)nn1-c1ccc(Cl)c(Cl)c1.Cl [Example 36, hydrochloride] , what is its reported inhibition at 0.1 µM?
52.7

Given the molecule CCOC(=O)N1CCN(CCOc2cc(C)n(-c3ccc(Cl)c(Cl)c3)n2)CC1 , what is its reported inhibition at 0.1 µM?
99.5

----------
Target: σ1-receptor (Cavia porcellus)
Construct: guinea pig brains were homogenized; from tissue; host or cells: guinea pig brain membranes
Assay: Sigma-1 receptor binding, [3H](+)-pentazocine, brain membranes
Set-up: species or system guinea pig
Details: 10^−7 M
measure: inhibition at 0.1 µM (%)
Field format: number, assumed %, no unit text.

- compound: "Cc1cc(OCCCCN2CCc3ccccc3C2)nn1-c1ccc(Cl)c(Cl)c1"
  inhibition at 0.1 µM [%]: 83
- compound: "CCN(CC)CCCCOc1cc(C)n(-c2ccc(Cl)c(Cl)c2)n1"
  inhibition at 0.1 µM [%]: 99.2
- compound: "CCN(CC)CCOc1ccn(-c2ccc(Cl)c(Cl)c2)n1"
  inhibition at 0.1 µM [%]: 108
- compound: "Cl.Clc1ccc(-n2nc(OCCN3CCc4ccccc4C3)cc2-c2ccccc2)cc1Cl [Example 21, hydrochloride]"
  inhibition at 0.1 µM [%]: 45.5
- compound: "Clc1ccc(-n2ccc(OCCN3CCCC3)n2)cc1Cl"
  inhibition at 0.1 µM [%]: 110

Could you share what inhibition at 0.1 µM was measured for Cc1cc(OCCN2CCN(C)CC2)nn1-c1ccc(Cl)c(Cl)c1 , tested on σ1-receptor (Cavia porcellus)?
94.5

----------
Biological target: σ1-receptor (Cavia porcellus, UniProt Q60492)
Construct: guinea pig brains were homogenized; from tissue; host or cells: guinea pig brain membranes
Sequence (Q60492 whole entry): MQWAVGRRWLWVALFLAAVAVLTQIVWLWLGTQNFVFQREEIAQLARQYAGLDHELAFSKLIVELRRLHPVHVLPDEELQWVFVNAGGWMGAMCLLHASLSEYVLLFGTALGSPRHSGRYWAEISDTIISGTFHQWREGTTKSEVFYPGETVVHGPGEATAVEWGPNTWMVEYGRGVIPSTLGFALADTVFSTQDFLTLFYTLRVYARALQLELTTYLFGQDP
Test: Sigma-1 receptor binding, [3H](+)-pentazocine, brain membranes
Design: species or system guinea pig
Conditions: 10^−7 M
measure: inhibition at 0.1 µM (%)
Field format: number, assumed %, no unit text.

Solved cases below.
- compound: "CC(C)c1cc(OCCN2CCCC2)nn1-c1ccc(Cl)c(Cl)c1.Cl [Example 33, hydrochloride]"
  tgt: "σ1-receptor (Cavia porcellus, UniProt Q60492)"
  inhibition at 0.1 µM, %: 87.1
- compound: "Cc1cc(OCCCN2CCCC2)nn1-c1ccc(Cl)c(Cl)c1.Cl [Example 4, hydrochloride]"
  tgt: "σ1-receptor (Cavia porcellus, UniProt Q60492)"
  inhibition at 0.1 µM, %: 98
- compound: "Clc1ccc(-n2ccc(OCCN3CCOCC3)n2)cc1Cl"
  tgt: "σ1-receptor (Cavia porcellus, UniProt Q60492)"
  inhibition at 0.1 µM, %: 108
- compound: "Cc1cc(OCCN2CCCC2)nn1-c1ccc(Cl)c(Cl)c1.Cl [Example 3, hydrochloride]"
  tgt: "σ1-receptor (Cavia porcellus, UniProt Q60492)"
  inhibition at 0.1 µM, %: 102
- compound: "COc1ccc(-n2nc(OCCCN3CCCC3)cc2C)cc1"
  tgt: "σ1-receptor (Cavia porcellus, UniProt Q60492)"
  inhibition at 0.1 µM, %: 50.9

Given the compound Cc1cc(OCCCCN2CCCC2)nn1-c1ccc(Cl)c(Cl)c1 , what is its reported inhibition at 0.1 µM?
96.4

Given the compound Cc1cc(OCCN2CCC(n3cnc4cccnc43)CC2)nn1-c1ccc(Cl)c(Cl)c1 , what is its reported inhibition at 0.1 µM?
94.4

Given the compound CCN(CC)CCOc1cc(C(C)C)n(-c2ccc(Cl)c(Cl)c2)n1 , what is its reported inhibition at 0.1 µM?
72.7

----------
Target: σ1-receptor (Cavia porcellus)
Construct: guinea pig brains were homogenized; from tissue; host or cells: guinea pig brain membranes
Assay: Sigma-1 receptor binding, [3H](+)-pentazocine, brain membranes
Set-up: species or system guinea pig
Details: 10^−7 M
Reported inhibition at 0.1 µM is given for each of the following compounds.
Field format: number, assumed %, no unit text.

Solved cases below.
- compound: "Cl.Clc1ccc(-n2nc(OCCN3CCOCC3)cc2-c2ccccc2)cc1Cl [Example 16, hydrochloride]"
  value: 46.5
- compound: "Clc1ccc(-n2nc(OCCCN3CCCC3)cc2-c2ccccc2)cc1Cl"
  value: 58.6

With those in mind, consider the next compound.
Given the compound Clc1ccc(-n2ccc(OCCN3CCCCC3)n2)cc1Cl , what is its reported inhibition at 0.1 µM?
110
